Test system: SW-620
TEST_SUMMARY: NCI tumour cell line growth inhibition, 48 h
Calls of active or inactive are those of the source. No stated cut-off is given here; in the data, active = GI50 up to about 1.1 µM and inactive = higher.
Your response should consist of one outcome taken from yes (1) (active), no (0) (inactive)

# fetch the recorded call for COC(=S)OC1CC(n2cnc3c(N)ncnc32)OC1CO[Si](C)(C)C(C)(C)C (centres undefined) here
no (0)

What is the recorded call for this compound in the test? CCOC(=O)[C@H](CO)NC1=C(Cl)C(=O)c2c(O)ccc(O)c2C1=O
no (0)

What classification did CC1=C(C(=O)Nc2ccccc2C)C(c2ccc(N(C)C)cc2)C(C(=O)Nc2ccccc2C)=C(C)N1 end up with in this test?
no (0)

Just curious, what result did COc1ccc(-c2nnc(CCCCCCCCc3nnc(-c4ccc(OC)cc4)n3N)n2N)cc1 get here?
no (0)

What did this assay record as the result for O=C(NCCCN(CCCCN(CCCNC(=O)C(F)(F)F)Cc1ccccc1)Cc1ccccc1)C(F)(F)F ?
no (0)

Field: outcome | Entry: CC1Oc2c(c(O)cc3oc(=O)cc(-c4ccccc4)c23)C(=O)C1C (centres undefined)
no (0)

# fetch the recorded call for CC1(C)/C(=N\Nc2ccc([N+](=O)[O-])cc2[N+](=O)[O-])C2CCC1C2 (centres undefined) here
no (0)

In this assay, the call recorded for Cc1cc2c(s1)C(=O)c1sccc1C2=O was what?
yes (1)

Kindly provide the recorded test outcome for the following compound: CCOc1c2c(cc3c1C(=O)c1c(OC)cccc1C3=O)C=C(OC)CC2
no (0)

Short answer needed: outcome of this test for N#CC(C#N)/N=N/c1ccc(-c2nc3ccccc3[nH]2)cc1 ?
no (0)

For CN(C)NC1=C([N+](=O)[O-])C=NN(c2ccccc2)C1 , which call appears in the assay record?
no (0)

What did the test return for COc1cc2c(c(OC)c1O)-c1ccc(SC)c(=O)cc1C(NC(C)=O)CC2 (centres undefined) ?
yes (1)

Assay result, entry COc1cc2c(cc1OC)[C@H]1C(=O)c3cc4c(cc3[C@H]1N(C)C2=O)OCO4 — outcome?
no (0)

Name the outcome recorded for OC1c2ccccc2[C@@H]2[C@H]1[C@@H](c1ccccc1)C1(Cc3ccccc3C1O)[C@H]2c1ccccc1 (some centres undefined) in the assay.
no (0)

---

Tested on: M19-MEL
TEST_SUMMARY: NCI tumour cell line growth inhibition, 48 h
Active and inactive are the calls of the source. Cut-off read from the data, not from the text of the source: active = GI50 up to about 1.1 µM and inactive = higher.
Could you please pick one outcome from this set? active, inactive

Hey, what did the test say about COc1ccc(OC)c(NC(=O)CCC/C(CC(=O)c2ccc(O)c(OC)c2)=N\NC(=O)C[N+](C)(C)C)c1 ?
inactive

Called result for O=C(CCN1CCC(CCO)CC1)Nc1ccc2c(c1)C(=O)c1ccc(NC(=O)CCN3CCC(CCO)CC3)cc1C2=O
inactive

I would be grateful if you could indicate the recorded call for CCCCCC(=O)Nc1nc(O)c2[nH]cnc2n1 .
inactive

Any idea what this test logged for Nc1nc(CCl)nc(Nc2ccccc2)n1 ?
inactive

Call for entry CC(=O)OC(C)(C)/C=C/C(=O)[C@](C)(O)[C@H]1[C@H](O)C[C@@]2(C)[C@@H]3CC=C4[C@@H](C[C@H](O)C(=O)C4(C)C)[C@]3(CO)C(=O)C[C@]12C :
active

What was the test verdict on CN1CCC23c4c5ccc(O)c4OC2C(=NN=C2CCC4(O)C6Cc7ccc(O)c8c7C4(CCN6C)C2O8)CCC3(O)C1C5 (stereo not given) ?
inactive

For COCOCCCCCO[Si](C)(C)C(C)(C)C , what call appears in the results of this test?
inactive

Hey, what did the test say about COc1cc(Br)c(/C=N/N=C(\N)NO)cc1OC ?
inactive

What classification did C=C=C(C(=O)OC)[S+]([O-])c1ccc([N+](=O)[O-])cc1[N+](=O)[O-] (stereo not given) end up with in this test?
inactive

Hi, sorry to bother you, what did the test record for COc1ccc(/C=C/C(=O)c2sc(-n3nc(-c4ccccc4)cc3-c3ccccc3)nc2C)cc1 ?
inactive

GET /call?item= OCC(O)CNc1ccnc2cc(Cl)ccc12 (stereo not given) returns the recorded outcome of this test.
inactive

Check the results log: what was the call for CC(C)(CN1CCCCC1)C(=O)CC(SCCS(=O)(=O)O)c1ccc(Br)cc1 (stereo not given) ?
inactive

Which outcome was entered for the molecule Cc1ccc(-c2cc(-c3ccco3)c(C#N)c(O)n2)cc1 in this test?
inactive

How was O=S(=O)(c1cccc(N=C=S)c1)c1cccc(N=C=S)c1 classified in this test?
inactive

How was O=c1oc2ccccc2c(O)c1C(C/C(CCN1CCCC1)=N\Nc1ccccc1)c1ccccc1 (stereo not given) classified in this test?
inactive

Short answer needed: outcome of this test for FC(F)(F)c1cccc(/C=N/C23CC4CC(CC(C4)C2)C3)c1 ?
inactive

What was the test verdict on COC(=O)C(CCC#N)(CCC#N)C(=O)OC ?
inactive

Can you look up the reported call for CN1C(=O)N(C)C2(O)c3ccccc3C(=O)C12O (stereo not given) for me?
inactive

I would be grateful if you could indicate the recorded call for COc1cc(CCCOC2OC(COC3OCC(O)C(O)C3O)C(O)C(O)C2O)cc2cc(-c3ccc4c(c3)OCO4)oc12 (stereo not given) .
inactive

Give the logged outcome of this assay for the following molecule: O=[N+]([O-])c1ccc(C2=NN(c3ccccc3)C[N+](c3ccc(Br)cc3)=N2)cc1
inactive
